- Tested on: AS1411 (FRET-labeled) (DNA, G4) GGTGGTGGTGGTTGTGGTGGTGGTGG
- experiment-description: FRET melting
- condition-summary: K+ 140 mM; 10 mM lithium cacodylate pH 7.2; ligand 4 eq., DNA 0.2 µM
property-name: ΔTm

Before answering, review these 3 worked examples.
CN(C)c1ccc(Nc2c3ccc(NC(=O)CCN4CCCC4)cc3nc3cc(NC(=O)CCN4CCCC4)ccc23)cc1    8.99 ± 0.79 °C
C[n+]1cc(NC(=O)c2cccc(C(=O)Nc3cc4ccccc4[n+](C)c3)n2)cc2ccccc21    19.28 ± 0.99 °C
C[n+]1ccc(-c2c3nc(c(-c4cc[n+](C)cc4)c4ccc([nH]4)c(-c4cc[n+](C)cc4)c4nc(c(-c5cc[n+](C)cc5)c5ccc2[nH]5)C=C4)C=C3)cc1    21.75 ± 1.08 °C

Request: # query: ΔTm of entry NCCOc1cc(C(=O)Nc2cc(OCCN)c3ccccc3n2)nc(C(=O)Nc2cc(OCCN)c3ccccc3n2)c1
Result: -0.75 ± 1.02 °C

Request: # query: ΔTm of entry C[n+]1cc(NC(=O)c2ccc3ccc4ccc(C(=O)Nc5cc6ccccc6[n+](C)c5)nc4c3n2)cc2ccccc21
Result: 24.77 ± 2.56 °C
